# target_or_system: mtGPAT1 (Mus musculus)
# Construct: from tissue; host or cells: mitochondrial preparation
# experiment: In vitro mtGPAT inhibition: acylation of 14C-glycerol 3-phosphate with palmitoyl-CoA, scintillation counting
# Type: biochemical
# run_conditions: Table 1, sulfonamides 5a-f and 13a-f; triplicate; read-out: IC50 (μM) ± SD, In Vitro Anti-mtGPAT1 Activity
readout_kind: IC50 (µM)
Just the number in µM, nothing appended.

1. CCCCCCCCCS(=O)(=O)Nc1cccc(CP(=O)(O)O)c1 [Compound 13d]; 23.7
2. CCCCCS(=O)(=O)NCc1ccccc1C(=O)O; 61.9
3. CCCCCCCCCS(=O)(=O)Nc1ccccc1CP(=O)(O)O [Compound 13b]; 30.6
4. CCCCCS(=O)(=O)Nc1ccccc1CP(=O)(O)O [Compound 13a]; 41.4
5. CCCCCCCCCS(=O)(=O)Nc1ccc(CP(=O)(O)O)cc1 [Compound 13f]; 30.7

Just so you know, measured IC50 for CCCCCS(=O)(=O)NCc1ccc(C(=O)O)cc1 came out at 72

The recorded IC50 for CCCCCS(=O)(=O)Nc1cccc(CP(=O)(O)O)c1 [Compound 13c] is 45.3

get_value(item= CCCCCS(=O)(=O)NCc1cccc(C(=O)O)c1 , readout=IC50) returns 88.5

###

Each item that follows carries a reported IC50.
# target_or_system: mtGPAT1 (Mus musculus, UniProt Q61586)
# Construct: from tissue; host or cells: mitochondrial preparation
# experiment: In vitro mtGPAT inhibition: acylation of 14C-glycerol 3-phosphate with palmitoyl-CoA, scintillation counting
# Type: biochemical
# run_conditions: Table 1, sulfonamides 5a-f and 13a-f; triplicate; read-out: IC50 (μM) ± SD, In Vitro Anti-mtGPAT1 Activity
Reply numerically in µM, unit not repeated.

// below: answered compounds
1. CCCCCCCCCS(=O)(=O)NCc1ccc(C(=O)O)cc1; 43.9
2. CCCCCCCCCS(=O)(=O)NCc1ccccc1C(=O)O; 22.7
3. CCCCCCCCCS(=O)(=O)NCc1cccc(C(=O)O)c1; 28.5

Proceeding to the next compound to report its IC50.
Lookup result for CCCCCS(=O)(=O)Nc1ccc(CP(=O)(O)O)cc1 [Compound 13e] ; measured IC50: 47.7

###

# target_or_system: mtGPAT1 (Mus musculus)
# Construct: from tissue; host or cells: mitochondrial preparation
# Sequence (Q61586 1-827): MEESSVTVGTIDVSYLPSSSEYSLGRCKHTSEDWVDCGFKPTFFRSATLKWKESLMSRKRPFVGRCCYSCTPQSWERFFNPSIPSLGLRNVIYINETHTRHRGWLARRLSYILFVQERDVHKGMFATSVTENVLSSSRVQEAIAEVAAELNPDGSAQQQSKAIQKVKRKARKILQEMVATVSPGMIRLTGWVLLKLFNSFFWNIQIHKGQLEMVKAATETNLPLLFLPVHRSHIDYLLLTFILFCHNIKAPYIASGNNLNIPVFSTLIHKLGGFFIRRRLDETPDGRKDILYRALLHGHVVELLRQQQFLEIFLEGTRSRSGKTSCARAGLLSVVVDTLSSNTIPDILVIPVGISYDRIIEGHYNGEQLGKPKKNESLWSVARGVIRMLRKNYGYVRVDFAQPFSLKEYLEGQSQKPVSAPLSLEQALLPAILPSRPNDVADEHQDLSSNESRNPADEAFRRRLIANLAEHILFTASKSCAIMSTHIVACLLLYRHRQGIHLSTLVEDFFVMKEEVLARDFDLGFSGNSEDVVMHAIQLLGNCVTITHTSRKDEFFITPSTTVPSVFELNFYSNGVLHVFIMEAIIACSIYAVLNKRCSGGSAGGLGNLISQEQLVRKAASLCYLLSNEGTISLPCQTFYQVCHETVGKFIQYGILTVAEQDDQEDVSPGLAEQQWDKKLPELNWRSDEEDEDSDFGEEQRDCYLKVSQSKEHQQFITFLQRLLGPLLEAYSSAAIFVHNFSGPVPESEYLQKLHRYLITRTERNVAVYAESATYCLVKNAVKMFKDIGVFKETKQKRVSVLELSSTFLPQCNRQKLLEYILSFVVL
# experiment: In vitro mtGPAT inhibition: acylation of 14C-glycerol 3-phosphate with palmitoyl-CoA, scintillation counting
# Format: biochemical
# run_conditions: compounds 4a-t and 7a-t; read-out: GPAT IC50
# Procedure: The compounds produced as described above were evaluated for their ability to inhibit the acylation of glycerol-3-phosphate in vitro. The acylation reaction between ^14C-labelled glycerol-3-phosphate and palmitoyl-CoA, initiated by adding mtGPAT, was measured in the presence of varying concentrations of the inhibitor by scintillation counting as described in more detail below. […]
Reported pIC50 values are given for each entry in this list.
FYI, pIC50 means -log10 of a concentration in mol per litre.

The cases that follow already have their pIC50 on record.
1) CCCCCCCCS(=O)(=O)Nc1cc(-c2ccccc2-c2ccccc2)ccc1C(=O)O; 4.74
2) CCCCCCCCS(=O)(=O)Nc1cc(-c2ccccc2F)ccc1C(=O)O; 4.25

compound CCCCCCCCS(=O)(=O)Nc1ccc(-c2cccc(F)c2)cc1C(=O)O , pIC50 observed: 4.28
